The values you see were collected from patent US20240376120A1.

# key: entry, value: IC50
system: MDA-MB-231 cells (human breast cancer cells); assay: MDA-MB-231 cell proliferation inhibitory assay (CellTiter-Glo); assay type: cell-based; settings: Homo sapiens, MDA-MB-231, 72 h, read-out: Proliferation inhibition IC50
# output: bare number, implied unit nM

Challenge: What IC50 value was documented for this molecule, CC[C@@]1(O)C(=O)OCc2c1cc1n(c2=O)Cc2c-1nc1cc(F)c(C)cc1c2[C@H](C)O [Example 12c] ?
Response given: 6.6

Challenge: Endpoint output: IC50 of CC[C@@]1(O)C(=O)OCc2c1cc1n(c2=O)Cc2c-1nc1ccc(OC)cc1c2[C@@H](C)O [Example 31d] . Value?
Response given: 8.3

Challenge: Query: IC50; subject: CC[C@@]1(O)C(=O)OCc2c1cc1n(c2=O)Cc2c-1nc1cc3c(cc1c2[C@H](C)N)OCCO3 [Example 36a]
Response given: 26.3

Challenge: Would you mind telling me what IC50 value was observed for CC[C@@]1(O)C(=O)OCc2c1cc1n(c2=O)Cc2c-1nc1cc(F)c(C)cc1c2[C@@H](C)O [Example 12d] ?
Response given: 12.3

Challenge: Which IC50 is reported for this molecule? CC[C@@]1(O)C(=O)OCc2c1cc1n(c2=O)Cc2c-1nc1cc(F)c(C)cc1c2[C@H](C)N1CCN(C)CC1 [Example 42a]
Response given: 125

Challenge: Reported IC50 for CC[C@@]1(O)C(=O)OCc2c1cc1n(c2=O)Cc2c-1nc1cc(F)c(C)cc1c2[C@H](C)NC(C)=O : what is it?
Response given: 74.2

Challenge: // returns reported IC50 for input CC[C@@]1(O)C(=O)OCc2c1cc1n(c2=O)Cc2c-1nc1cc(F)c(C)cc1c2[C@H](N)C(F)(F)F [Example 40b]
Response given: 25.7
